Can you tell me IC50 for the items I'm about to list?
Test system: H2405 cells
Experiment: H2405 Cell Proliferation Assay (1)
Type: cell-based
Conditions: Homo sapiens, NCI-H2405

>>> experimental_value("COC(=O)Nc1nccc(-c2cccc(-c3cc(NC(=O)c4ccnc(C(C)(C)C#N)c4)cnc3C)c2)n1 [Example 290]")
"1000 to 10000 nM"
>>> experimental_value("CNC(=O)c1cc(-c2ccnc(-c3cc(NC(=O)c4ccnc(C(C)(C)C#N)c4)ccc3C)c2)ccn1 [Example 376]")
"100 to 500 nM"
>>> experimental_value("CNC(=O)c1cc(-c2ccnc(-c3cc(NC(=O)CCC4(F)CC4)ccc3C)c2)ccn1 [Example 392]")
"1000 to 10000 nM"

# return IC50 for each item in the list
1. Cc1ccc(NC(=O)c2ccnc(C(C)(F)F)c2)cc1-c1cncc(-c2cc(NC(=O)C3CC3)ncn2)c1 [Example 419]
2. CNC(=O)c1cc(-c2cncc(-c3cc(NC(=O)c4cnn(CC(F)(F)F)c4)ccc3C)c2)ncn1 [Example 382]
3. CNC(=O)c1cc(-c2cc(-c3cc(NC(=O)c4cccc(C(C)(C)C#N)c4)ccc3C)cc(OCCO)n2)ccn1 [Example 231]
4. CNC(=O)c1cc(-c2cc(-c3cc(NC(=O)c4ccnc(C(C)(C)F)c4)ccc3C)nc(C)n2)ccn1 [Example 428]

1. ≤ 100 nM
2. 1000 to 10000 nM
3. ≤ 100 nM
4. 100 to 500 nM

FYI, the data here is from patent US12319655B2.
